- System: MS2 coat protein
- test protocol: apparent KD of MS2 coat protein; designed switch direction (-1 OFF switch, 1 ON switch): -1; higher = weaker reporter binding
- assay setup: input ligand: microRNA oligo, concentration not stated
// reported apparent KD of MS2 coat protein per item
The reply should contain only the number, in nM.

sequence string	unit symbol	apparent KD of MS2 coat protein
UUAAUACAUGUAGGAUAUGCGUGGCGAAGCUAUGCAGAAGGACAUGAGGAUCACCCAUGUCUAUGCGUCCGCGUACGGAUGCAA [JL Eng1 1.21 mod 6] (Eterna round: R96, puzzle: Exclusion NG 1)	nM	9.06

Look at this sequence and give its reported apparent KD of MS2 coat protein. AACCUGAGGCUUUGCUUUAGGUUUACAUGAGGAUCACCCAUGUAGGAUAUGGUAGGCAUAGCUUACCAGAAGGACAUGAAAAUU [Mat - Exclusion NG 3 - Mod of JL - D29] (Eterna round: R96, puzzle: Exclusion NG 3)
34.1

* * *

- System: MS2 coat protein
- test protocol: apparent KD of MS2 coat protein; designed switch direction (-1 OFF switch, 1 ON switch): 1; higher = weaker reporter binding
- assay setup: Eterna round: R95; input ligand: FMN 200 uM
Could you label it Y if measured apparent KD of MS2 coat protein is 40 nM or higher, and N otherwise?

sequence string	target	classification
UUUAAACAUGAGGAUCACCCAUGUUUUUUCAUGGGAGGAUAUCUGAGUUAAUUAUAUUAAGGAGAAGGCCUAUUUU [× ×•×ª×• ×ž×“×™× ×” × ×—×ª-01] (puzzle: Same State 1)	MS2 coat protein	Y

Exam item: decide whether the reported apparent KD of MS2 coat protein for GGUCCAGCCUGAGCUGGACAAAAGCAUGUACAUGAGGAUCACCCAUGUCAUGUACAAGCUUUUUGCUCGUCUAAAGG [Mat - hsa-mir-208a - 92] (puzzle: Sensor for hsa-mir-208a) is at least 40 nM.
Y

Exam item: decide whether the reported apparent KD of MS2 coat protein for UGUAAACAUGAGGAUCACCCAUGUUUUUUCAUGGGAGGAUAUCUGAGUUAAGUAUAUUAAGGAGAAGGCCUUGUGU [× ×•×ª×• ×ž×“×™× ×” × ×—×ª-03] (puzzle: Same State 1) is at least 40 nM.
Y

Exam item: decide whether the reported apparent KD of MS2 coat protein for UACAAUCUAUCUGAGGAUAUCAUGAUUUAAACAUGAGGAUCACCCAUGUGCAGGAAAACUGCAUAUGAGAAGGCAGAUAGAUUGU [salish99_ss2_r3_063] (puzzle: Same State 2) is at least 40 nM.
Y

Exam item: decide whether the reported apparent KD of MS2 coat protein for UGGUAACAUGAGGAUCACCCAUGUCAAAUGAAUCGAGGAUAUGGGAAUUAACAACACAAACUAGAAGGCGAAUUUG [Altered State 1-8 - Jieux - Same State 1] (puzzle: Same State 1) is at least 40 nM.
Y

Exam item: decide whether the reported apparent KD of MS2 coat protein for AGUGAACAUGAGGAUCACCCAUGUGAGAGAAGUGUAGGAUAUGUGAGGAGCAGAGGAGGAACAGAAGGACAUGGAG [JR_SS!_Sub073] (puzzle: Same State 1) is at least 40 nM.
N

* * *

- Test system: MS2 coat protein
- test protocol: apparent KD of MS2 coat protein; designed switch direction (-1 OFF switch, 1 ON switch): -1; higher = weaker reporter binding
- assay setup: input ligand: none
// reported apparent KD of MS2 coat protein per item
# do not omit the unit; it follows the number

sequence string	apparent KD of MS2 coat protein
UAUAUGUCAGGAUAUCGAUUAGUACGGGAUUCGGUACUGGUUGAGAAGGGACAUGAGGAUCACCCAUGUUUUUC [EX4 #69] (Eterna round: R97, puzzle: Exclusion 4)	36.5 nM

Short answer please: apparent KD of MS2 coat protein, MS2 coat protein, entry GAAUAGCAAGCGAGAUCCCACAUGAGGAUCACCCAUGUGCUCGUCUUAUAAAGUACUGUGACGAAAGUCACGGUACA [Mat - Sensor, turn-off var - Eli Mod - D12] (Eterna round: R97, puzzle: Sensor, turn-off variant 1)
17.8 nM

* * *

- System: MS2 coat protein
- test protocol: apparent KD of MS2 coat protein; designed switch direction (-1 OFF switch, 1 ON switch): -1; higher = weaker reporter binding
- assay setup: input ligand: none
recorded endpoint: apparent KD of MS2 coat protein (nM)
The reply should contain only the number, in nM.

# example entries with known answers
sequence string	recorded endpoint	test value
AGAUCGUCAGGAUAUACAUGAGGAUCACCCAUGUAUAGUCUAAAUUUGACUAUAAGAUGUAGAAGGGACGAUCG [Exclusion 3 (MOD5 of #1 Marzena11)] (Eterna round: R97, puzzle: Exclusion 3)	apparent KD of MS2 coat protein	21.4
UACACUGCAUGAGGAUCAAACAUGAGGAUCACCCAUGUAUAGCAAGCUUUUUGCUCGUCUUAUAAUUAUGUAGUGUA [Electric Eye 12 - Jieux - Sensor, turn-off variant 1] (Eterna round: R97, puzzle: Sensor, turn-off variant 1)	apparent KD of MS2 coat protein	15.7
UGAUCUAGCGGAGGAUAUACAUGAGGAUCACCCAUGUAUAGGCUAUGACCGUAGUCGUGGCACGUGUAGAAGGCCGCUAGAUCU [JL ENG2 3.77] (Eterna round: R96, puzzle: Exclusion NG 2)	apparent KD of MS2 coat protein	12.8

Short answer please: apparent KD of MS2 coat protein, MS2 coat protein, entry GGAGGAGAGUUAGGAUAUACAAGAAGAAUGUGAGUAGAAGGAACGGAACAUGAGGAUCACCCAUGUCCCAUGUGGAGGAGGAGG [Kawasakiqro] (Eterna round: R96, puzzle: Exclusion NG 1)
30.9

* * *

- Test system: MS2 coat protein
- test protocol: apparent KD of MS2 coat protein; designed switch direction (-1 OFF switch, 1 ON switch): 1; higher = weaker reporter binding
- assay setup: input ligand: microRNA oligo, concentration not stated
Could you label it met if measured apparent KD of MS2 coat protein is 70 nM or higher, and not met otherwise?

Exam item: decide whether the reported apparent KD of MS2 coat protein for AACAGUCGGCGAGGAUAUGGACGGACAGGCUUGCCUGUGCGGCUCACAUGAGGAUCACCCAUGUUCUAGAAGGCGCCACUGAGA [Atteve] (Eterna round: R96, puzzle: Same State NG 2) is at least 70 nM.
not met

Exam item: decide whether the reported apparent KD of MS2 coat protein for UGAAUAGUUACAGGAUAUGAGCCGAAAAUUGGGUCAGAAGGGUGGGUGUUUUGCGCUAUGUGCUACAUGAGGAUCACCCAUGUU [SameState NG1 #34] (Eterna round: R96, puzzle: Same State NG 1) is at least 70 nM.
met

Exam item: decide whether the reported apparent KD of MS2 coat protein for GGAAAGAGGUUAGGAUAUGCAUGUUUGGGACAUGAGGAUCACCCAUGUAAUAGAAGAAAUCUACAGUAGAAGGGACAAGGAAGG [AK SSNG2-V2-6.1] (Eterna round: R96, puzzle: Same State NG 2) is at least 70 nM.
met

Exam item: decide whether the reported apparent KD of MS2 coat protein for GUGGUGGGUUGAGGAUAUUGGUUGUCGUUGUCCCACAUGAGGAUCACCCAUGUGGGUUGUGGUUUUGAGAAGGUUGGUUGCUGG [salish99_SSNG2_r04_052] (Eterna round: R96, puzzle: Same State NG 2) is at least 70 nM.
not met

Exam item: decide whether the reported apparent KD of MS2 coat protein for AUAGUUGCCGAAGGAUAUGAUGAGGAUCACCCAUCAGAAGGUUGGCUAUUGGGCUGACAUGAGGAUCACCCAUGUUUCGGUGUU (Eterna round: R96, puzzle: Same State NG 1) is at least 70 nM.
not met

Exam item: decide whether the reported apparent KD of MS2 coat protein for GCUUGCGGCGCAGGAUAUGGGUGCCUGUACAUGAGGAUCACCCAUGUUAAGGGACGGAAAACGAACCAGAAGGGCGUCGCGAGC [Inraeded] (Eterna round: R96, puzzle: Same State NG 2) is at least 70 nM.
met

Exam item: decide whether the reported apparent KD of MS2 coat protein for AGCUAUUAAUCAGGAUAUGGUGACAUGAGGAUCACCCAUGUAUUGAUGAUUAAAUGUGGUCACUACCAGAAGGGAUUACUAACA [SameState NG2 #50] (Eterna round: R96, puzzle: Same State NG 2) is at least 70 nM.
met

Exam item: decide whether the reported apparent KD of MS2 coat protein for UGUUGUAUUACAGGAUAUCUAGUGUUUUUAUUUAGAGAAGGGUAUUCACAUGAGGAUCACCCAUGUAUAUACGAGGAAGUUGUG [JMF's solution 34] (Eterna round: R96, puzzle: Same State NG 1) is at least 70 nM.
not met

Exam item: decide whether the reported apparent KD of MS2 coat protein for GCGAGCGUACUUGCUACAUGAGGAUCACCCAUGUUUAUUGGACAGGAUAUGGUACCGUUUCGGUACCAGAAGGGUCCACAUGUG [JL SSNG3 3.86] (Eterna round: R96, puzzle: Same State NG 3) is at least 70 nM.
met

Where these numbers come from: the supplement of paper PMC9170038
